molecular target: human NPFF1R (Homo sapiens, UniProt Q9GZQ6)
Sequence (Q9GZQ6 whole entry): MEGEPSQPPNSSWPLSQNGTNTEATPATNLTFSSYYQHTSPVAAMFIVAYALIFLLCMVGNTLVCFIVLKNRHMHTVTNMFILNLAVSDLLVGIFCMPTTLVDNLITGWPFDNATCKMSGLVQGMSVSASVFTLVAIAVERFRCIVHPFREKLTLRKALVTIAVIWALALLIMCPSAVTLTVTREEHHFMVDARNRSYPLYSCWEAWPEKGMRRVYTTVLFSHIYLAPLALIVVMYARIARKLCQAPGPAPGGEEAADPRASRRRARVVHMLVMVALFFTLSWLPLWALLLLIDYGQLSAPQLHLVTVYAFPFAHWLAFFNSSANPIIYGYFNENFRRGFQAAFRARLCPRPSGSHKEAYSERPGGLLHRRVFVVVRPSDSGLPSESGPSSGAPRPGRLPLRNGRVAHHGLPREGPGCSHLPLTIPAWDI
pIC50: −log10 of the molar value. Starred links: 1 amine or outer side, 2 acyl side, 3 side chain; linkers in the order of their positions; H or OH if unused. Non-standard residues stand in square brackets, D forms with d. Residues, ends and D or L forms follow the SMILES beside them. Nva(5-(4-Bn-piperidin-1-yl)) = N[C@@H](CCCN1CCC(Cc2ccccc2)CC1)C(=O)O; X1 = O=C1[C@@H](N[*:1])Cc2ccccc2CN1CCC(=O)[*:2]; Dmt = Cc1cc(O)cc(C)c1C[C@H](N)C(=O)O
readout type: pIC50

Before answering, review these 2 worked examples.
| compound | result |
| --- | --- |
| Cc1cc(O)cc(C)c1C[C@H](N)C(=O)N[C@H](CCCNC(=N)N)C(=O)N[C@H]1Cc2ccccc2CN(CCC(=O)N[C@@H](CCCN2CCC(Cc3ccccc3)CC2)C(=O)N[C@@H](Cc2c[nH]c3ccccc23)C(N)=O)C1=O [DP0005, H-Dmt-D-Arg-Aba-β-Ala-Bpa-Trp-NH2] (H-[Dmt][dR][X1][Nva(5-(4-Bn-piperidin-1-yl))]W-NH2) | ~7.30 |
| CC[C@H](C)[C@H](NC(=O)[C@H](CCCN1CCC(Cc2ccccc2)CC1)NC(=O)CCN1Cc2ccccc2C[C@H](NC(=O)[C@@H](CCCNC(=N)N)NC(=O)[C@@H](N)Cc2c(C)cc(O)cc2C)C1=O)C(N)=O [DP0002, H-Dmt-D-Arg-Aba-β-Ala-Bpa-Ile-NH2] (H-[Dmt][dR][X1][Nva(5-(4-Bn-piperidin-1-yl))]I-NH2) | 6.30 to 7.30 |

Consider the additional compound presented here.
Request the reported pIC50 associated with "Cc1cc(O)cc(C)c1C[C@H](N)C(=O)N(C)[C@H](C)C(=O)N[C@H]1Cc2c(ccc3ccccc23)CN(CC(=O)N[C@@H](CCCN2CCC(Cc3ccccc3)CC2)C(=O)N[C@@H](Cc2ccccc2)C(N)=O)C1=O" > 7.40

----------
Target: human MOPr (Homo sapiens, UniProt P35372)
Sequence (P35372 whole entry): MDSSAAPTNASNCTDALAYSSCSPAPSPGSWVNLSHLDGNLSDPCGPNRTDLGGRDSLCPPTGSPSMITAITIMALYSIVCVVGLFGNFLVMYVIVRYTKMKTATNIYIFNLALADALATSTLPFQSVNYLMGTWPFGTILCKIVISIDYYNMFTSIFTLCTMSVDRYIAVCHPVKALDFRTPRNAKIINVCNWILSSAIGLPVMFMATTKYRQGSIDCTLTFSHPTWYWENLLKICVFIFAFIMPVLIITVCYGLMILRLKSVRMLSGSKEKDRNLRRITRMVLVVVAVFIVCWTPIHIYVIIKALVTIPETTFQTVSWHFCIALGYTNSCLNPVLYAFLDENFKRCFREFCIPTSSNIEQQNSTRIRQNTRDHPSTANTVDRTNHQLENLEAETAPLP
Test: BRET1 β-arrestin-2 recruitment assay
Assay type: cell-based
Parameters: expressed in transfected cells; host or cells: HEK293 cells stably expressing eYFP-β-arrestin-2, transiently transfected with the Rluc8-MOP plasmid
Conditions: Table 3B; — = non-detectable recruitment; read-out: MOPr (β-arrestin-2) EC50
Protocol: Peak response amplitudes were normalized to basal and maximal (cells permeabilized with 20 μM digitonin) fluorescence levels. […] Briefly, two days prior the experiment, HEK293 cells stably expressing eYFP-tagged β-arrestin-2 were transfected with the plasmid encoding Rluc8-MOP receptor. β-Arrestin-2 recruitment was measured at 37° C. in presence of 5 μM Coelenterazine H, 5 min after agonist addition.
Starred links: 1 amine or outer side, 2 acyl side, 3 side chain; linkers in the order of their positions; H or OH if unused. Non-standard residues stand in square brackets, D forms with d. Residues, ends and D or L forms follow the SMILES beside them. Nva(5-(4-Bn-piperidin-1-yl)) = N[C@@H](CCCN1CCC(Cc2ccccc2)CC1)C(=O)O; X1 = O=C1[C@@H](N[*:1])Cc2ccccc2CN1CCC(=O)[*:2]; Dmt = Cc1cc(O)cc(C)c1C[C@H](N)C(=O)O
readout type: EC50 (µM)
Answers are plain numbers, in µM.

| molecule | target desc | EC50, µM |
| --- | --- | --- |
| Cc1cc(O)cc(C)c1C[C@H](N)C(=O)N[C@H](CCCNC(=N)N)C(=O)N[C@H]1Cc2ccccc2CN(CCC(=O)N[C@@H](CCCN2CCC(Cc3ccccc3)CC2)C(=O)N[C@H](C(N)=O)C(C)C)C1=O [DP0001, H-Dmt-D-Arg-Aba-β-Ala-Bpa-Val-NH2] (H-[Dmt][dR][X1][Nva(5-(4-Bn-piperidin-1-yl))]V-NH2) | human MOPr (Homo sapiens, UniProt P35372) | 0.101 |

Request the reported EC50 associated with Cc1cc(O)cc(C)c1C[C@H](N)C(=O)N[C@H](CCCNC(=N)N)C(=O)N[C@H]1Cc2c(ccc3ccccc23)CN(CC(=O)N[C@@H](CCCN2CCC(Cc3ccccc3)CC2)C(=O)N[C@H](C(N)=O)C(C)C)C1=O [DP0021, H-Dmt-D-Arg-1AnaGly-Bpa-Val-NH2] 0.109
